- experimentalTarget: IRAK-4 enzyme (Homo sapiens, UniProt Q9NWZ3)
- Construct: purchased Millipore, USA
- experimentSummary: IRAK-4 Biochemical Assay (TR-FRET)
- conditionInfo: 1 μM compound, recombinant IRAK-4 kinase, 20 μM ATP
Structures can show the parent of a compound that is named as a salt.
Below, each entry is listed with its recorded inhibition at 1 µM.
experimentalReadout: inhibition at 1 µM (%)

molecule="COc1ccc(C(=O)Nc2cc3cn(C)nc3cc2N2CCCCC2)nc1N1CCC(O)C1 (stereo not shown)" experimentalreadout="inhibition at 1 µM" endpointunit=% observedmeasurement=21
molecule="COCCn1cc2cc(NC(=O)c3cccc(N4CCC(O)C4)n3)c(N3CCCCC3)cc2n1 (stereo not shown)" experimentalreadout="inhibition at 1 µM" endpointunit=% observedmeasurement=97
molecule="Cn1cc2cc(NC(=O)c3cccc(-c4cccc(N)n4)n3)c(C3CC3)cc2n1 [Example 51, hydrochloride]" experimentalreadout="inhibition at 1 µM" endpointunit=% observedmeasurement=92
molecule=Cn1cc2cc(NC(=O)c3cccc(-c4ccc(N)nc4)n3)c(N3CCCCC3)cc2n1 experimentalreadout="inhibition at 1 µM" endpointunit=% observedmeasurement=97
molecule=Cc1cc(-c2nc(C(=O)Nc3cc4cnn(C)c4nc3N3CC[C@H](O)C3)co2)ccn1 experimentalreadout="inhibition at 1 µM" endpointunit=% observedmeasurement=33
molecule=Cn1cc2cc(NC(=O)c3coc(-c4cccc(N)n4)n3)c(N3CCCCC3)cc2n1 experimentalreadout="inhibition at 1 µM" endpointunit=% observedmeasurement=97
molecule=Cc1cc(-c2nc(C(=O)Nc3cc4cnn(CCN(C)C)c4cc3N3CCC(O)CC3)co2)ccn1 experimentalreadout="inhibition at 1 µM" endpointunit=% observedmeasurement=98
molecule=Cc1nn(C)c2cc(N3CCC(COCC4CC4)CC3)c(NC(=O)c3coc(-c4ccnc(N)c4)n3)cc12 experimentalreadout="inhibition at 1 µM" endpointunit=% observedmeasurement=85
molecule="Cn1ncc2cc(NC(=O)c3cccc(N4CCC(O)C4)n3)c(N3CCCCC3)cc21 (stereo not shown)" experimentalreadout="inhibition at 1 µM" endpointunit=% observedmeasurement=81
molecule="CN1CCN(CCn2ncc3cc(NC(=O)c4coc(-c5ccnc(N)c5)n4)c(N4CCC(O)CC4)cc32)CC1 [Example 31, hydrochloride]" experimentalreadout="inhibition at 1 µM" endpointunit=% observedmeasurement=99
molecule=COCCn1nc(C)c2cc(NC(=O)c3coc(-c4ccnc(N)c4)n3)c(N3CCC(CO)CC3)nc21 experimentalreadout="inhibition at 1 µM" endpointunit=% observedmeasurement=99
molecule=Cn1cc2cc(NC(=O)c3coc(-c4cccc(N)n4)n3)c(N3CCOCC3)cc2n1 experimentalreadout="inhibition at 1 µM" endpointunit=% observedmeasurement=97
molecule="COCCn1ncc2cc(NC(=O)c3coc(-c4ccnc(N)c4)n3)c(N3CCC(O)CC3)cc21 [Example 7, hydrochloride]" experimentalreadout="inhibition at 1 µM" endpointunit=% observedmeasurement=98
molecule=COc1ccc(C(=O)Nc2cc3cn(C)nc3cc2N2CCCCC2)nc1-c1ccnc(N)c1 experimentalreadout="inhibition at 1 µM" endpointunit=% observedmeasurement=27
molecule=Cn1cc2cc(NC(=O)c3coc(N4CC[C@H](O)C4)n3)c(N3CCCCC3)nc2n1 experimentalreadout="inhibition at 1 µM" endpointunit=% observedmeasurement=93
molecule="Cn1ncc2cc(NC(=O)c3coc(-c4cccnc4N)n3)c(N3CCC(O)CC3)cc21 [Example 1, hydrochloride]" experimentalreadout="inhibition at 1 µM" endpointunit=% observedmeasurement=97

---

- experimentalTarget: IRAK-4 enzyme (Homo sapiens, UniProt Q9NWZ3)
- Construct: purchased Millipore, USA
- experimentSummary: IRAK-4 Biochemical Assay (TR-FRET)
- conditionInfo: 0.1 μM compound, recombinant IRAK-4 kinase, 20 μM ATP
- Protocol: Compounds were tested for their potential to inhibit IRAK-4 enzyme in a TR-FRET assay using recombinant IRAK-4 kinase from Millipore, USA. The assay buffer was 50 mM Tris-HCl pH 7.5, 20 mM MgCl2, 1 mM EGTA, 2 mM DTT, 3 mM MnCl2 and 0.01% Tween 20.5 ng of IRAK-4 kinase was used for the assay. […] The fluorescence emission at 615 nm and 665 nm were measured at an excitation of 340 nm and the percent inhibition was estimated from the ratio of the fluorescence intensities [(F665/F615)×10000]. […]
Where a name gives a salt, the structure may show the parent alone.
Could you label it true if measured inhibition at 0.1 µM is 90% or higher, and false otherwise?

compound=COCCn1nc(C)c2cc(NC(=O)c3coc(-c4ccnc(N)c4)n3)c(N3CCC(O)CC3)cc21 experimentaltarget="IRAK-4 enzyme (Homo sapiens, UniProt Q9NWZ3)" category=true
compound=Cn1cc2cc(NC(=O)c3cccc(-c4ccnc(N)c4)n3)c(C3CC3)cc2n1 experimentaltarget="IRAK-4 enzyme (Homo sapiens, UniProt Q9NWZ3)" category=true
compound="COCCCn1ncc2cc(NC(=O)c3coc(-c4ccnc(C)c4)n3)c(N3CCC(O)CC3)cc21 [Example 4, hydrochloride]" experimentaltarget="IRAK-4 enzyme (Homo sapiens, UniProt Q9NWZ3)" category=true
compound="COc1ccc(C(=O)Nc2cc3cn(C)nc3cc2N2CCCCC2)nc1N1CCC(O)C1 (centres unmarked)" experimentaltarget="IRAK-4 enzyme (Homo sapiens, UniProt Q9NWZ3)" category=false
compound=Cc1cc(-c2nc(C(=O)Nc3cc4cnn(CCN(C)C)c4cc3N3CCC(O)CC3)co2)ccn1 experimentaltarget="IRAK-4 enzyme (Homo sapiens, UniProt Q9NWZ3)" category=true
compound=C=CCOCC1CCN(c2cc3c(cc2NC(=O)c2coc(-c4cccc(N)n4)n2)c(C)nn3C)CC1 experimentaltarget="IRAK-4 enzyme (Homo sapiens, UniProt Q9NWZ3)" category=false
compound=Cc1nn(C)c2cc(N3CCC(COCC4CC4)CC3)c(NC(=O)c3coc(-c4ccnc(N)c4)n3)cc12 experimentaltarget="IRAK-4 enzyme (Homo sapiens, UniProt Q9NWZ3)" category=false
compound=Cn1cc2cc(NC(=O)c3cccc(-c4ccc(N)nc4)n3)c(C3CC3)cc2n1 experimentaltarget="IRAK-4 enzyme (Homo sapiens, UniProt Q9NWZ3)" category=true
compound="CN1CCN(CCn2ncc3cc(NC(=O)c4coc(-c5ccnc(N)c5)n4)c(N4CCC(O)CC4)cc32)CC1 [Example 31, hydrochloride]" experimentaltarget="IRAK-4 enzyme (Homo sapiens, UniProt Q9NWZ3)" category=true
compound=COc1ccc(C(=O)Nc2cc3cn(C)nc3cc2N2CCCCC2)nc1-c1ccnc(N)c1 experimentaltarget="IRAK-4 enzyme (Homo sapiens, UniProt Q9NWZ3)" category=false
compound=Cn1cc2cc(NC(=O)c3cccc(-c4cccc(N)n4)n3)c(N3CCCCC3)cc2n1 experimentaltarget="IRAK-4 enzyme (Homo sapiens, UniProt Q9NWZ3)" category=true
compound="Cn1cc2cc(NC(=O)c3cccc(N4CCC(O)C4)n3)c(N3CCOCC3)cc2n1 (centres unmarked)" experimentaltarget="IRAK-4 enzyme (Homo sapiens, UniProt Q9NWZ3)" category=false
compound="Cn1cc2cc(NC(=O)c3ccnc(N4CCC(O)C4)n3)c(C3CC3)cc2n1 (centres unmarked)" experimentaltarget="IRAK-4 enzyme (Homo sapiens, UniProt Q9NWZ3)" category=false
compound="O=C(Nc1cc2cnn(C3CCNCC3)c2cc1C1CC1)c1cccc(N2CCC(O)C2)n1 (centres unmarked) [Example 32, hydrochloride]" experimentaltarget="IRAK-4 enzyme (Homo sapiens, UniProt Q9NWZ3)" category=false
compound=Cc1ccc(C(=O)Nc2cc3cn(C)nc3cc2N2CCCCC2)nc1N1CCC(O)CC1 experimentaltarget="IRAK-4 enzyme (Homo sapiens, UniProt Q9NWZ3)" category=false
compound=Cc1cc(-c2nc(C(=O)Nc3cc4cnn(CCN5CCN(C)CC5)c4cc3N3CCC(O)CC3)co2)ccn1 experimentaltarget="IRAK-4 enzyme (Homo sapiens, UniProt Q9NWZ3)" category=false
compound=Cc1cc(-c2nc(C(=O)Nc3cc4cnn(C)c4nc3N3CCCCC3)co2)ccn1 experimentaltarget="IRAK-4 enzyme (Homo sapiens, UniProt Q9NWZ3)" category=true
compound=Cn1cc2cc(NC(=O)c3cccc(-c4ccc(N)nc4)n3)c(N3CCOCC3)cc2n1 experimentaltarget="IRAK-4 enzyme (Homo sapiens, UniProt Q9NWZ3)" category=true
compound=Cc1cc(-c2nc(C(=O)Nc3cc4cnn(CCCN5CCOCC5)c4cc3N3CCC(O)CC3)co2)ccn1 experimentaltarget="IRAK-4 enzyme (Homo sapiens, UniProt Q9NWZ3)" category=true
compound="Cn1cc2cc(NC(=O)c3cccc(-c4ccnc(N)c4)n3)c(N3CCOCC3)cc2n1 [Example 50, hydrochloride]" experimentaltarget="IRAK-4 enzyme (Homo sapiens, UniProt Q9NWZ3)" category=false
compound="Cn1cc2cc(NC(=O)c3ccc(N4CCC(O)C4)cn3)c(N3CCCCC3)nc2n1 (centres unmarked)" experimentaltarget="IRAK-4 enzyme (Homo sapiens, UniProt Q9NWZ3)" category=false

---

- experimentalTarget: IRAK-4 enzyme (Homo sapiens)
- Construct: purchased Millipore, USA
- Sequence (Q9NWZ3 1-460): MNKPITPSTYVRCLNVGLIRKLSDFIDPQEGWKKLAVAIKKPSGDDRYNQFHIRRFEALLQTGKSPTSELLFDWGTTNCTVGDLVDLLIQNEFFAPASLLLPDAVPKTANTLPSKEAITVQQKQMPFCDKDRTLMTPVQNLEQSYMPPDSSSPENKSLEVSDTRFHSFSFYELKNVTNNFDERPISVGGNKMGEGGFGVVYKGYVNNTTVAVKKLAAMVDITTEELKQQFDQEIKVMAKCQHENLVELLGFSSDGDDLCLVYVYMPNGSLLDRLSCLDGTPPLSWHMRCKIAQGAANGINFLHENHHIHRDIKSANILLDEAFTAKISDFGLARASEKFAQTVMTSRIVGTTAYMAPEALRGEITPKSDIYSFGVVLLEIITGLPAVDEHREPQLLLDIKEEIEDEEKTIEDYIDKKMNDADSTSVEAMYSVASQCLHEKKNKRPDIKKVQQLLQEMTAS
- experimentSummary: IRAK-4 Biochemical Assay (TR-FRET)
- conditionInfo: 0.1 μM compound, recombinant IRAK-4 kinase, 20 μM ATP
Where a name gives a salt, the structure may show the parent alone.
experimentalReadout: inhibition at 0.1 µM (%)

compound="C=CCOCC1CCN(c2cc3c(cc2NC(=O)c2coc(-c4ccnc(N)c4)n2)c(C)nn3C)CC1 [Example 12]" experimentalreadout="inhibition at 0.1 µM" endpointunit=% observedmeasurement=95
compound="COCCn1ncc2cc(NC(=O)c3coc(-c4ccnc(N)c4)n3)c(N3CCC(O)CC3)cc21 [Example 7, hydrochloride]" experimentalreadout="inhibition at 0.1 µM" endpointunit=% observedmeasurement=96
compound="Cn1cc2cc(NC(=O)c3cccc(-c4ccnc(N)n4)n3)c(C3CC3)cc2n1 [Example 47]" experimentalreadout="inhibition at 0.1 µM" endpointunit=% observedmeasurement=77
compound="Cc1ccc(C(=O)Nc2cc3cn(C)nc3cc2N2CCCCC2)nc1N1CCC(O)C1 (stereo not shown) [Example 59]" experimentalreadout="inhibition at 0.1 µM" endpointunit=% observedmeasurement=74
